These measurements were taken from patent US20060160777A1.

Listed below: clearance values for each entry.
# ASSAY: Pharmacokinetics in female dogs after single intravenous and oral doses
# Format: in vivo, dog
# MEASUREMENT_SETUP: Beagle and Labrador, dog, in vivo; female dogs, intravenous bolus, geometric mean; dose 2-7 μmol/kg per compound; read-out: CL (total plasma clearance)
Just the number in mL/min/kg, nothing appended.

[[record]]
mol_smiles = "NCCC[PH](=O)O"
observed_result = 20

[[record]]
mol_smiles = "NC[C@H](O)C[PH](=O)O"
observed_result = 6.67


Req: Which clearance is reported for this compound? NCC(=O)C[PH](=O)O
Resp: 8.2

====

# ASSAY: Pharmacokinetics in female dogs after single intravenous and oral doses
# Format: in vivo, dog
# MEASUREMENT_SETUP: Beagle and Labrador, dog, in vivo; female dogs, geometric mean; dose 2-7 μmol/kg per compound; read-out: T1/2 (half-life) (converted)
Listed below: half-life values for each entry.
Just the number in min, nothing appended.

Example cases with answers are listed next.
[[record]]
mol_smiles = "NCCC[PH](=O)O"
quantity_kind = "half-life"
observed_result = 31.2

[[record]]
mol_smiles = "NCC(=O)C[PH](=O)O"
quantity_kind = "half-life"
observed_result = 150


Then this molecule:
Req: Which half-life is reported for this molecule? NC[C@H](O)C[PH](=O)O
Resp: 30
